Target: E. coli NDH-1 NuoH mutant P49A (Escherichia coli, UniProt P0AFC7+P0AFD4+P33599, P49A)
Experiment: Inhibition of dNADH oxidase activity, NuoH mutant P49A
attributeMeasured: IC50 (nM)

                            structurestring  valuemeasured
0  CCCCCCCCCCCC[C@H](O)[C@H]1CC[C@H]([C@H]2CC[C@H]([C@H](O)CCCCCCCC[C@@H](O)CC3=C[C@H](C)OC3=O)O2)O1              5

###

Molecular target: E. coli NDH-1 NuoD mutant E236D (Escherichia coli, UniProt P0AFD4+P33599, E236D)
Assay: Inhibition of dNADH oxidase activity, NuoD mutant E236D
attributeMeasured: IC50 (nM)

>>> df
                            structurestring  unitannotation  valuemeasured
0  CCCCCCCCCCCC[C@H](O)[C@H]1CC[C@H]([C@H]2CC[C@H]([C@H](O)CCCCCCCC[C@@H](O)CC3=C[C@H](C)OC3=O)O2)O1              nM              7
